test system: Ipomoea hederacea (IPOHE); test: Post-emergence efficacy, Method A; assay type: in vivo; details: Ipomoea hederacea, post-emergence, 312 h, Application rate 500 g/Ha; evaluated after 13 days; 100=total damage to plant, 0=no damage to plant; read-out: Control of weed species after post-emergence application, IPOHE
Endpoint name: pest or weed control at 500 g/ha (%)
Dear colleague, please return just the value in %, with no unit written.

Look over these answered cases.
Compound	pest or weed control at 500 g/ha (%)
O=S(=O)(O)CCC[n+]1ccc(-c2cnccn2)cn1	40
Cc1cncc(-c2cc[n+](CCC(=O)O)nc2)n1	30

Q: Answer with the recorded pest or weed control at 500 g/ha of Cc1cnc(-c2cc[n+](CCS(=O)(=O)[O-])nc2)c(C)c1 only.
A: 0

Q: Return pest or weed control at 500 g/ha (reported value) for this compound: O=C(O)CC[n+]1ccc(-c2ncc(C(F)(F)F)cn2)cn1
A: 10

Q: In one line, give reported pest or weed control at 500 g/ha of the entry O=S(=O)([O-])CC[n+]1ccc(-c2ccncn2)cn1 .
A: 90

Q: Tell me pest or weed control at 500 g/ha reported for Cc1n[n+](CCS(=O)(=O)[O-])ccc1-c1ncccn1
A: 30

Q: Supply measured pest or weed control at 500 g/ha of CN(C)C(=O)c1cnc(-c2cc[n+](CCC(=O)[O-])nc2)nc1 in your reply.
A: 100

Q: Return the recorded pest or weed control at 500 g/ha value; entry: Cc1cc(Cl)cnc1-c1cc[n+](CCCS(=O)(=O)[O-])nc1
A: 0
